Test system: Caco-2
Experiment: cell viability relative to DMSO; higher = less toxic
Conditions: 72 h; 1000 nM
Catalogue of compounds with associated cell viability
Your answer is read as %, so omit the unit and give the number.

Example cases with answers are listed next.
{"columns": ["compound", "scale-unit", "cell viability"],
 "data": [
  ["NS(=O)(=O)c1cc(C(=O)O)cc(N2CCCC2)c1Oc1ccccc1 [piretanide]", "%", 104],
  ["COc1ccc(Cl)cc1NC(=O)Nc1cc(C)nc2ccccc12", "%", 97.6],
  ["CCc1c(C(=O)C(N)=O)c2c(OCC(=O)O)cccc2n1Cc1ccccc1", "%", 93],
  ["Cc1cccc2c1CC[C@H](CN1CCC(c3c(Cl)cccc3Cl)CC1)C[C@@H]2O", "%", 78.3]
]}

For the compound O=C1N[C@@H]2[C@@H](O)[C@@H](O)[C@H](O)[C@@H](CO)N2C1=O , report cell viability. 75.1
